target: hGLP-1R (Homo sapiens, UniProt P43220); experiment: cell-based or functional assay
Sequence (P43220 24-463): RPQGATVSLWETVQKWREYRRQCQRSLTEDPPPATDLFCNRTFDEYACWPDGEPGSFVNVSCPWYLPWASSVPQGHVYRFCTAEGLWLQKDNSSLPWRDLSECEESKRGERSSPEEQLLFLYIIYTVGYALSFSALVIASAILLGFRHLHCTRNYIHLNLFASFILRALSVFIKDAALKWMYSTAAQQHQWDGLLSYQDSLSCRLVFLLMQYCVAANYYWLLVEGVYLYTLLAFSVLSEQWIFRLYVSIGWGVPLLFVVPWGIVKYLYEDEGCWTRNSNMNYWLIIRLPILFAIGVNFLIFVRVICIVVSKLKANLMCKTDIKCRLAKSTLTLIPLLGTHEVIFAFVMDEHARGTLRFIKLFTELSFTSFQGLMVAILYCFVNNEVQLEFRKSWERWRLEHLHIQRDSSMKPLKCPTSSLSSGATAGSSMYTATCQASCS
Returns: string. Value is fulfilled if measured cAMP Rel EC50, nM (1% HSA) is below 400 nM, and not fulfilled if it is greater than or equal to it.

Exercise: I'd appreciate it if you could check whether YXQGTFTSDFSXXLDKKAQXAFIEYLLEAGPSSGEPPPSGT (synthetic construct; SITE 2: note = 2-Aminoisobutyric Acid; SITE 12: note = L-ornithine; SITE 13: note = alpha-methyl-leucine; SITE 17: note = Lysine is chemically modified through conjugation of the epsilon-amino group of the Lysine side chain with (2-[2-(2-Amino-ethoxy)-ethoxy]-acetyl)2-(gamma-Glu)) [Example 156] has cAMP Rel EC50, nM (1% HSA) smaller than 400 nM.
Key: not fulfilled
